The reported numbers originate from paper PMC12648313.

Biological target: cJun bZIP (UniProt P05412)
Sequence (P05412 252-315): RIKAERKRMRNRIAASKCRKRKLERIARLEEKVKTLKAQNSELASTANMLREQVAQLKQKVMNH
Test: competition (FP)
Conditions: antagonist peptide ATF2W; FP: chloride salt (buffer and salt concentration truncated in material), 5 mM MgCl2, 10 mM TCEP, pH 7.4; 10 nM FAM-DNA; 1 h incubation, temperature not in …
EXPERIMENTAL_ENDPOINT: IC50

Reported IC50 of TCTCTGACTCAGAGA (double strand) [FAM-TRE] : 1.85 µM
